# Tested on: Caco-2
# Assay Protocol: Cytotoxicity against human Caco-2 cells after 48 hrs by MTT assay
# Format: functional, cell-based
# Condition Description: Caco-2, 48 h
I'd appreciate it if you could supply IC50 values for the items below.

# annotated cases, reported IC50 shown
> print(dat)
                                   compound  recorded.metric  measured.result
1  O=C(Cc1ccccc1Cl)NCc1ccc(-c2nc(C(=O)N3CCCCC3)cs2)cc1             IC50       12.8 µg/mL
2  O=C(Cc1cccc(Cl)c1)NCc1ccc(-c2nc(C(=O)N3CCCCC3)cs2)cc1             IC50        155 µg/mL
3  O=C(Cc1ccc(F)cc1)NCc1ccc(-c2nc(C(=O)N3CCCCC3)cs2)cc1             IC50        114 µg/mL
4  COc1ccc(CC(=O)NCc2ccc(-c3nc(C(=O)N4CCCCC4)cs3)cc2)cc1             IC50       1.88 µg/mL
5  O=C(Cc1ccc(Br)cc1)NCc1ccc(-c2nc(C(=O)N3CCCCC3)cs2)cc1             IC50         52 µg/mL
6  O=C(Cc1ccccc1F)NCc1ccc(-c2nc(C(=O)N3CCCCC3)cs2)cc1             IC50       18.1 µg/mL
7  O=C(Cc1ccc(Cl)cc1)NCc1ccc(-c2nc(C(=O)N3CCCCC3)cs2)cc1             IC50       89.9 µg/mL
8  COc1ccccc1CC(=O)NCc1ccc(-c2nc(C(=O)N3CCCCC3)cs2)cc1             IC50       28.1 µg/mL

Need IC50 for each of these compounds.
1. O=C(Cc1cccc(F)c1)NCc1ccc(-c2nc(C(=O)N3CCCCC3)cs2)cc1
2. COc1cccc(CC(=O)NCc2ccc(-c3nc(C(=O)N4CCCCC4)cs3)cc2)c1
3. CN(Cc1cnc2nc(N)nc(N)c2n1)c1ccc(C(=O)N[C@@H](CCC(=O)O)C(=O)O)cc1 [METHOTREXATE]

["4.32 µg/mL", "41.1 µg/mL", "0.32 µg/mL"]
